- Test Target: human kinase Mps-1 (Homo sapiens, UniProt P33981)
- Construct: N-terminally GST-tagged human full length recombinant Mps-1 kinase; GST (N); purchased Invitrogen, Karslruhe, Germany PV4071
- Sequence (P33981 1-857): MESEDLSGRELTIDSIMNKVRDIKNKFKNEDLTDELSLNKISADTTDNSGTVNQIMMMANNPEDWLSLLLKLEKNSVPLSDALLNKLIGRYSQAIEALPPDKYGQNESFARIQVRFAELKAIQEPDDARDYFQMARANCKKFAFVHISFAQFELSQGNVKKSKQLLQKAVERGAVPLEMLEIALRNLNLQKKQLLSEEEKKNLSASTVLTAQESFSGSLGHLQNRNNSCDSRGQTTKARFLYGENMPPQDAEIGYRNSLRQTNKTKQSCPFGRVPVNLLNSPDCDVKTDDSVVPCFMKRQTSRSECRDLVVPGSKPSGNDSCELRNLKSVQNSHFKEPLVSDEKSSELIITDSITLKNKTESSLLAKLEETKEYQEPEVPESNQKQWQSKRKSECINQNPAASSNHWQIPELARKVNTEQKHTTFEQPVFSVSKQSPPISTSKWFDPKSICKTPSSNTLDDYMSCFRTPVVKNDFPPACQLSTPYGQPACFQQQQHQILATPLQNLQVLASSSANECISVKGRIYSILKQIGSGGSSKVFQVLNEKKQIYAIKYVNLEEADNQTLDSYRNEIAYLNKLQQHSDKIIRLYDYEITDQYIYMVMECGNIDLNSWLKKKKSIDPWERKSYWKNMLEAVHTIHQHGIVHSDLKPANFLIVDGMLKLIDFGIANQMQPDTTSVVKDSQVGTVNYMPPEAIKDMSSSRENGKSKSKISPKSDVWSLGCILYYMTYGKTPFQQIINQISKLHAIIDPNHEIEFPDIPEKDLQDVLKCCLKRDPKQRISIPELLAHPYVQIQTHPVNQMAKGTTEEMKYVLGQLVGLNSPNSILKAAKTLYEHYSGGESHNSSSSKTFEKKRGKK
- Assay Info: Mps-1 kinase assay (TR-FRET)
- Type: biochemical
- Settings: N-terminally GST-tagged human full length recombinant Mps-1; 10 μM ATP; 1 μM biotinylated peptide substrate; 60 min at 22° C.; read-out: Mps1 IC50
Test Readout: IC50 (nM)

CC(C)CNc1nccn2c(-c3ccc(C(=O)NC4CC4)c(Cl)c3)cnc12 ... 28
CN(C)CCCNc1nccn2c(-c3ccc(C(=O)NC4CC4)cc3)cnc12 ... 1260
CCCCNc1nccn2c(-c3ccc(C(=O)NC4CC4)c(C)c3)cnc12 ... 18.5
CS(=O)(=O)CCCNc1nccn2c(-c3ccc(C(=O)NC4CC4)cc3)cnc12 ... 87.4
O=C(NC1CC1)c1ccc(-c2cnc3c(NCCc4cccnc4)nccn23)cc1 ... 244
NCCCNc1nccn2c(-c3ccc(C(=O)NC4CC4)c(Cl)c3)cnc12 ... 2500

1 = COc1cc(C(=O)NC2CC2)ccc1-c1cnc2c(NCCCN)nccn12
2 = CC(=O)NCCNc1nccn2c(-c3ccc(C(=O)NC4CC4)c(Cl)c3)cnc12
**Query** # argmax over IC50 for candidates 1 and 2 API: response body contains the label of the selected item.
**Result** 2
